- assayDetails: Enzymatic stability assessed as bovine pancreatic trypsin-mediated compound hydrolysis by measuring parent compound remaining at 100 uM incubated for 1 hr by LC-MS/MS analysis
- Type: ADME, Bos taurus
- measurementParameters: cattle, read-out: Stabilty
Numbered stars: 1 amine (or outer) side, 2 acyl side, 3 side chain; on linkers, the order of the positions; unused ones are H or OH. Bridge positions count the residues as written; N and C are the ends. Square brackets hold non-standard residues; d marks the D form. Peptide text beside a SMILES is read from it. Trp(5-F) = N[C@@H](Cc1c[nH]c2ccc(F)cc12)C(=O)O; X3 = O=C(CCSCc1cc(F)cc(CSCCN[*:1])c1)[*:2]; Lys(Me3) = C[N+](C)(C)CCCC[C@H](N)C(=O)O; X1 = O=C(CCSCc1cccc(CSCCN[*:1])c1)[*:2]; mXylylene = c1cc(C[*:1])cc(C[*:2])c1; αMeP = C[C@@]1(C(=O)O)CCCN1; Mpa = O=C(O)CCS
This section presents compounds with their documented remaining at 1 h, 100 µM values.
Kindly answer with a numeric value in %, unit omitted.

Solved entries:
CO[C@H](C)[C@@H]1NC(=O)[C@@H]2CCCN2C(=O)[C@H](Cc2c[nH]c3ccc(F)cc23)NC(=O)[C@H](Cc2c[nH]c3ccc(F)cc23)NC(=O)CNC(=O)[C@H](CCCCN)NC(=O)CCSCc2cccc(c2)CSC[C@@H](C(N)=O)NC(=O)[C@]2(C)CCCN2C(=O)[C@H](Cc2ccc(O)cc2)NC1=O ([Mpa]KG[Trp(5-F)][Trp(5-F)]PT(Me)Y[αMeP]C-NH2; linker 1-10 via mXylylene) ... 1.2
COc1ccc(C[C@@H]2NC(=O)[C@H]([C@@H](C)O)NC(=O)[C@@H]3CCCN3C(=O)[C@@H]3Cc4cn(c5ccc(F)cc45)Cc4cn(nn4)-c4cc(cc(c4)CSCCC(=O)N[C@@H](C)C(=O)N[C@H](C)C(=O)N[C@@H](Cc4c[nH]c5ccc(F)cc45)C(=O)N3)CSCCNC(=O)[C@]3(C)CCCN3C2=O)cc1 ... 99.2
C[C@@]12CCCN1C(=O)[C@H](Cc1ccc(O)cc1)NC(=O)[C@H](Cc1cnc[nH]1)NC(=O)[C@H](CC(=O)O)NC(=O)[C@H](Cc1c[nH]c3ccc(F)cc13)NC(=O)[C@H](Cc1c[nH]c3ccc(F)cc13)NC(=O)CNC(=O)[C@H](CCCCN)NC(=O)CCSCc1cccc(c1)CSC[C@@H](C(N)=O)NC2=O ([Mpa]KG[Trp(5-F)][Trp(5-F)]DHY[αMeP]C-NH2; linker 1-10 via mXylylene) ... 0.9
C[C@@H](O)[C@@H]1NC(=O)[C@@H]2CCCN2C(=O)[C@H](Cc2c[nH]c3ccc(F)cc23)NC(=O)[C@H](Cc2c[nH]c3ccc(F)cc23)NC(=O)CNC(=O)[C@H](CCCCN)NC(=O)CCSCc2cccc(c2)CSC[C@@H](C(N)=O)NC(=O)[C@]2(C)CCCN2C(=O)[C@H](Cc2ccc(O)cc2)NC1=O ([Mpa]KG[Trp(5-F)][Trp(5-F)]PTY[αMeP]C-NH2; linker 1-10 via mXylylene) ... 1.9

Entry `NCCCC[C@@H]1NC(=O)CCSCc2cccc(c2)CSC[C@@H](C(N)=O)NC(=O)[C@@H]2CCCN2C(=O)[C@H](Cc2ccc(O)cc2)NC(=O)[C@H](Cc2c[nH]cn2)NC(=O)[C@H](CC(=O)O)NC(=O)[C@H](Cc2c[nH]c3ccc(F)cc23)NC(=O)[C@H](Cc2c[nH]c3ccc(F)cc23)NC(=O)CNC1=O` , remaining at 1 h, 100 µM reported as 1.2

Entry `C[C@H]1NC(=O)[C@H](CCCCN)NC(=O)CCSCc2cccc(c2)CSCCNC(=O)[C@]2(C)CCCN2C(=O)[C@H](Cc2ccc(O)cc2)NC(=O)[C@H](Cc2cnc[nH]2)NC(=O)[C@H](CC(=O)O)NC(=O)[C@H](Cc2c[nH]c3ccc(F)cc23)NC(=O)[C@H](Cc2c[nH]c3ccc(F)cc23)NC1=O` , remaining at 1 h, 100 µM reported as 79.5

Entry COc1ccc(C[C@@H]2NC(=O)[C@H](Cc3cnc[nH]3)NC(=O)[C@H](CC(=O)O)NC(=O)[C@H](Cc3c[nH]c4ccc(F)cc34)NC(=O)[C@H](Cc3c[nH]c4ccc(F)cc34)NC(=O)[C@@H](C)NC(=O)[C@H](CCCC[N+](C)(C)C)NC(=O)CCSCc3cccc(c3)CSCCNC(=O)[C@]3(C)CCCN3C2=O)cc1 (cyclo(DHY(Me)[αMeP][X1][Lys(Me3)][dA][Trp(5-F)][Trp(5-F)])) , remaining at 1 h, 100 µM reported as 98.4

Entry C[C@@H]1NC(=O)CCSCc2cccc(c2)CSC[C@@H](C(N)=O)NC(=O)[C@@H]2CCCN2C(=O)[C@H](Cc2ccc(O)cc2)NC(=O)[C@H](Cc2cnc[nH]2)NC(=O)[C@H](CC(=O)O)NC(=O)[C@H](Cc2c[nH]c3ccc(F)cc23)NC(=O)[C@H](Cc2c[nH]c3ccc(F)cc23)NC(=O)CNC1=O ([Mpa]AG[Trp(5-F)][Trp(5-F)]DHYPC-NH2; linker 1-10 via mXylylene) , remaining at 1 h, 100 µM reported as 1

Entry C[C@H]1NC(=O)[C@H](CCCCN)NC(=O)CCSCc2cc(F)cc(c2)CSCCNC(=O)[C@]2(C)CCCN2C(=O)[C@H](Cc2ccc(O)cc2)NC(=O)[C@H](Cc2cnc[nH]2)NC(=O)[C@H](CC(=O)O)NC(=O)[C@H](Cc2c[nH]c3ccc(F)cc23)NC(=O)[C@H](Cc2c[nH]c3ccc(F)cc23)NC1=O (cyclo(DHY[αMeP][X3]K[dA][Trp(5-F)][Trp(5-F)])) , remaining at 1 h, 100 µM reported as 91

Entry `COc1ccc(C[C@@H]2NC(=O)[C@H]([C@@H](C)OC)NC(=O)[C@@H]3CCC(=O)NCc4cccc(c4)C[C@H](NC(=O)[C@@H](C)NC(=O)[C@H](C)NC(=O)CCSCc4cccc(c4)CSCCNC(=O)[C@]4(C)CCCN4C2=O)C(=O)N[C@@H](Cc2c[nH]c4ccc(F)cc24)C(=O)N3C)cc1` , remaining at 1 h, 100 µM reported as 97.6

Entry `C[C@H]1NC(=O)[C@H](CCCCN)NC(=O)CCSCc2cccc(c2)CSC[C@@H](C(N)=O)NC(=O)[C@]2(C)CCCN2C(=O)[C@H](Cc2ccc(O)cc2)NC(=O)[C@H]([C@@H](C)O)NC(=O)[C@@H]2C[C@H](F)CN2C(=O)[C@H](Cc2c[nH]c3ccc(F)cc23)NC(=O)[C@H](Cc2c[nH]c3ccc(F)cc23)NC1=O` , remaining at 1 h, 100 µM reported as 95.9

====

This section presents compounds with their documented pKi values.
- systemTested: PCSK9/LDLR (Homo sapiens, UniProt Q8NBP7)
- Sequence (Q8NBP7 31-152 limits assumed): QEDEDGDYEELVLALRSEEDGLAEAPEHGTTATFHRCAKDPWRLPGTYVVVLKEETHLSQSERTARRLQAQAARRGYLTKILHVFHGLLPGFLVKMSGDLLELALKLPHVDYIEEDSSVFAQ
- Sequence (Q8NBP7 153-692 limits assumed): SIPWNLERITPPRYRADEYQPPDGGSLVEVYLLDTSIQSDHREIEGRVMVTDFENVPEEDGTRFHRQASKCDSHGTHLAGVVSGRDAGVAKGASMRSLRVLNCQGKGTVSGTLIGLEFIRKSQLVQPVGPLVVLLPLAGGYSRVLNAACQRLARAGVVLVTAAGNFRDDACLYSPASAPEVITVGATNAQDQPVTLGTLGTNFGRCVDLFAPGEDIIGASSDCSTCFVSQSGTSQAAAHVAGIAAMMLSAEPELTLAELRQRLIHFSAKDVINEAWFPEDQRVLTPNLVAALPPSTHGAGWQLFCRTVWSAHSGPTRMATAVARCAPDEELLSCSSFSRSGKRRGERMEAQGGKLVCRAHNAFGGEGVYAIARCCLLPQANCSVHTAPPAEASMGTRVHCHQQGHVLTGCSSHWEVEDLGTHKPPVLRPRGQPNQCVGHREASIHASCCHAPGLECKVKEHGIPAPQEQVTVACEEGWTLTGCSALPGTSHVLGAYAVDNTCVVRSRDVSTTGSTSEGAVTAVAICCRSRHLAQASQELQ
- Sequence (P01130 22-860 partner limits assumed): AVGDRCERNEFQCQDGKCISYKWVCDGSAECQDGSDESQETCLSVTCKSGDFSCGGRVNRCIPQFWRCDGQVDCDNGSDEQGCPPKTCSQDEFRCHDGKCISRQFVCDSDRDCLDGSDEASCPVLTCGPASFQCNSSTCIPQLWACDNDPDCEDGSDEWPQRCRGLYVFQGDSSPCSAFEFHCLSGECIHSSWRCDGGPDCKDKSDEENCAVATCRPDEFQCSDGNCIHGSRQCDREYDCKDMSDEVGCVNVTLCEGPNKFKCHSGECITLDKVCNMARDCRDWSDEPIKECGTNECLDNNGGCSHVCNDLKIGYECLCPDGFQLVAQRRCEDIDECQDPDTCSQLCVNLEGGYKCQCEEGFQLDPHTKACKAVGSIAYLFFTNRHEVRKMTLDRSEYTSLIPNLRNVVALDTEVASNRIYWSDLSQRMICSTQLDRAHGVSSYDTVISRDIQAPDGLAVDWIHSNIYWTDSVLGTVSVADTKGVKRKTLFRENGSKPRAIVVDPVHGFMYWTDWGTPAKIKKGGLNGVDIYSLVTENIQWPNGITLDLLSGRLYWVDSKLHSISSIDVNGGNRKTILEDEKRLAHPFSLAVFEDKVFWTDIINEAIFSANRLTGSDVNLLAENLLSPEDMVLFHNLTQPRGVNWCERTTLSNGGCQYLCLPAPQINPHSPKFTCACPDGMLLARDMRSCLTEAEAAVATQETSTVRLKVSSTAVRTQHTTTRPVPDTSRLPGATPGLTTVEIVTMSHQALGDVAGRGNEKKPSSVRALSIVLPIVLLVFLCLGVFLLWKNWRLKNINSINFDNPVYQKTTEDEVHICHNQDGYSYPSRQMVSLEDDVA
- assayDetails: Inhibition of avi-tagged-biotinylated human PCSK9 interaction with His-tagged human LDLR EGFa domain by LANCE Ulight Streptavidin based TR-FRET assay
Numbered stars: 1 amine (or outer) side, 2 acyl side, 3 side chain; on linkers, the order of the positions; unused ones are H or OH. Bridge positions count the residues as written; N and C are the ends. Square brackets hold non-standard residues; d marks the D form. Peptide text beside a SMILES is read from it. Trp(5-F) = N[C@@H](Cc1c[nH]c2ccc(F)cc12)C(=O)O; mXylylene = c1cc(C[*:1])cc(C[*:2])c1
To interpret pKi, take it as minus log10 of a concentration measured in moles per litre.

NCCCC[C@H]1NC(=O)CCSCc2cccc(c2)CSC[C@@H](C(N)=O)NC(=O)[C@@H]2CCCN2C(=O)[C@H](Cc2ccc(O)cc2)NC(=O)[C@H](Cc2cnc[nH]2)NC(=O)[C@H](CC(=O)O)NC(=O)[C@H](Cc2c[nH]c3ccc(F)cc23)NC(=O)[C@H](Cc2c[nH]c3ccc(F)cc23)NC(=O)CNC1=O ... 4.79

Entry CC(=O)N[C@H]1CSCc2cccc(c2)CSC[C@@H](C(N)=O)NC(=O)[C@@H]2CCCN2C(=O)[C@H](Cc2ccc(O)cc2)NC(=O)[C@H](Cc2cnc[nH]2)NC(=O)[C@H](CC(=O)O)NC(=O)[C@H](Cc2c[nH]c3ccccc23)NC(=O)[C@H](Cc2c[nH]c3ccc(F)cc23)NC(=O)CNC(=O)[C@H](CCCCN)NC1=O (Ac-CKG[Trp(5-F)]WDHYPC-NH2; linker 1-10 via mXylylene) , pKi reported as 5.97

====

- assayDetails: Enzymatic stability assessed as bovine pancreatic trypsin-mediated compound hydrolysis by measuring parent compound remaining at 100 uM incubated for 1 hr by LC-MS/MS analysis
- Assay type: ADME, Bos taurus
- measurementParameters: cattle, read-out: Stabilty
Numbered stars: 1 amine (or outer) side, 2 acyl side, 3 side chain; on linkers, the order of the positions; unused ones are H or OH. Square brackets hold non-standard residues; d marks the D form. Peptide text beside a SMILES is read from it. Trp(5-F) = N[C@@H](Cc1c[nH]c2ccc(F)cc12)C(=O)O; X1 = O=C(CCSCc1cccc(CSCCN[*:1])c1)[*:2]; αMeP = C[C@@]1(C(=O)O)CCCN1
This section presents compounds with their documented remaining at 1 h, 100 µM values.
Kindly answer with a numeric value in %, unit omitted.

C[C@@]12CCCN1C(=O)[C@H](Cc1ccc(O)cc1)NC(=O)[C@H](Cc1cnc[nH]1)NC(=O)[C@H](CC(=O)O)NC(=O)[C@H](Cc1c[nH]c3ccc(F)cc13)NC(=O)[C@H](Cc1c[nH]c3ccc(F)cc13)NC(=O)CNC(=O)[C@H](CCCCN)NC(=O)CCSCc1cccc(c1)CSCCNC2=O (cyclo(DHY[αMeP][X1]KG[Trp(5-F)][Trp(5-F)])) ... 0.8

Entry `COc1ccc(C[C@@H]2NC(=O)[C@H]([C@@H](C)O)NC(=O)[C@@H]3CCC(=O)NCc4cccc(c4)C[C@H](NC(=O)[C@@H](C)NC(=O)[C@H](C)NC(=O)CCSCc4cccc(c4)CSCCNC(=O)[C@]4(C)CCCN4C2=O)C(=O)N[C@@H](Cc2c[nH]c4ccc(F)cc24)C(=O)N3)cc1` , remaining at 1 h, 100 µM reported as 100
